TEST METHOD NOTES: compound binding in COS7 lysate, probe aLAP1, primary screen, cell lysate, small-molecule microarray (AID 1124);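 further: lysate comes from COS7 cells expressing LAP1 and is applied at 0.3 µg/mL; score merges spot fluorescence near 667 nm with signal-to-noise over triplicate slides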
MEASUREMENT SETUP: probe aLAP1, fluorescence, higher = more signal
Classification field: 1 (yes) = composite z-score at or over 1; 0 (no) = composite z-score under 1.

Consider the worked cases shown below.
[[record]]
molecule = "C=CC(CO)NC(=O)OCC1c2ccccc2-c2ccccc21 (stereo not given)"
discrete_label = "0 (no)"

[[record]]
molecule = "CCCCC(=C=CC[C@@H](O)c1ccc(OCCO)cc1)C[C@@H](O)c1ccccn1"
discrete_label = "0 (no)"

[[record]]
molecule = "COc1ccc(CC[C@H](O)c2cccc(OCC(=O)OC(C)(C)C)c2)cc1"
discrete_label = "0 (no)"


Determine whether this molecule has composite z-score no lower than 1: CC(C)c1ccc(NN2C(C(O)C(C)C)C=CC3C(=O)N(c4ccccc4)C(=O)C32)cc1 (stereo not given)
1 (yes)

Determine whether this molecule has composite z-score no lower than 1: `O=C1N(CCS(=O)(=O)c2ccccc2)c2ccccc2[C@@H]2OC(c3ccc(OCCCO)cc3)=N[C@]12CCS(=O)(=O)c1ccccc1`
1 (yes)
